pIC50: −log10 of the molar value.
// read-out pIC50, gathered for Macrophage colony-stimulating factor 1 receptor (Homo sapiens, UniProt P07333) from published studies

The examples below pair each entry with its known result.
[
  {
    "molecule": "CC(C)N1CCOc2c(F)cc(-c3nc(Nc4ccn(C5CCNCC5)c(=O)c4)ncc3F)cc21",
    "pIC50": 8.52
  },
  {
    "molecule": "COc1cnc2[nH]cc(Cc3cc(F)c(OCc4nc5ccccc5[nH]4)cc3Cl)c2c1",
    "pIC50": "≥ 5.00"
  },
  {
    "molecule": "O=C(c1c(F)ccc(NS(=O)(=O)C2CC2)c1F)c1c[nH]c2ncc(Br)cc12",
    "pIC50": "≥ 5.00"
  },
  {
    "molecule": "Clc1ccc(CNc2ccc(Cc3c[nH]c4ncc(Br)cc34)cn2)cc1",
    "pIC50": "≥ 5.00"
  },
  {
    "molecule": "Clc1ccc(CNc2ccc(Cc3c[nH]c4ncncc34)cn2)cc1",
    "pIC50": "≥ 5.00"
  },
  {
    "molecule": "Cc1cnc2[nH]cc(Cc3ccc(Nc4ccc(C5CC5)nc4)nc3F)c2c1",
    "pIC50": "> 7.00"
  },
  {
    "molecule": "CCCCNC(=O)Nc1cccc(C(=O)c2c[nH]c3ncc(Br)cc23)c1",
    "pIC50": "≥ 5.00"
  },
  {
    "molecule": "CC(C)S(=O)(=O)Nc1ccc(F)c(Cc2c[nH]c3ncc(Br)cc23)c1F",
    "pIC50": "≥ 5.00"
  },
  {
    "molecule": "CCn1cc(Nc2ccc(C(=O)c3c[nH]c4ncnc(C5CC5)c34)c(F)n2)cn1",
    "pIC50": "> 7.00"
  },
  {
    "molecule": "CC(=O)Nc1cccc(-c2cnc3[nH]cc(C(=O)c4cc(Cl)cc(Cl)c4)c3c2)c1",
    "pIC50": "≥ 5.00"
  }
]

[ask] Dear colleague, I am looking for the recorded pIC50 of the following molecule: `CCOc1c(OCc2ccc(Cl)cc2Cl)cccc1C(=O)c1c[nH]c2ncccc12`
[reply] ≥ 5.00

[ask] Another molecule: `Cc1cccc(C(=O)Nc2ccc(Cl)c([C@@H](C)Oc3cc(Cl)cnc3N)c2)c1Cl`
[reply] 6.30 to 7.29

[ask] Then this molecule: `COc1cnc2[nH]cc(Cc3cc(F)c(OCc4nc5ccccc5[nH]4)cc3F)c2c1`
[reply] ≥ 5.00

[ask] Repeat with Nc1ncc(-c2cccc(CCNC3CCN[C@@H](C(=O)OC4CCCC4)C3)c2)nc1NCc1c(Cl)cccc1Cl (some centres unmarked)
[reply] > 7.00

[ask] And what about the molecule `COc1ccc(-c2[nH]c3ncc(C#CCCO)cc3c2CN2CCOCC2)cc1OC` ?
[reply] 7.52 to 8.00

[ask] And for `O=C(c1ccc(NC2CCC(F)(F)CC2)nc1)c1c[nH]c2ncnc(NC3CC3)c12` ?
[reply] > 7.00

[ask] Item: `COc1ccc(CNc2ccc(Cc3c[nH]c4ncccc34)cn2)cc1`
[reply] ≥ 5.00
